Target: T1, human OPGbp [143-317] (human, UniProt O14788 143-317)
T1 construct: also called OPGL
T1 sequence (looked up): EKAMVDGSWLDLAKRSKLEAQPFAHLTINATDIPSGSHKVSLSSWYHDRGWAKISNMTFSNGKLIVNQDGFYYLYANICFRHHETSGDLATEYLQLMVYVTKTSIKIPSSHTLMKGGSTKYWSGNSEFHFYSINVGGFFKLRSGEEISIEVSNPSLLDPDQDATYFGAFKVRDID
Test: SPR (BIAcore), immobilized OPGbp [143-317]
pKd: −log10 of the molar value.
Experimental readout: pKd

“AT” antibody variant S96A, S97A (heavy chain CDR3) (antibody, name in Kabat numbering, V domains shown, not shown: human IgG1 CH1, hinge, CH2 and CH3) VH: QVQLVQSGAEVRKPGASVKVSCKASGYDFSNYAIHWVRQAPGQRLEWMGWINAGNGNTKFSQKFQGRITVTRDTAASTAYMELRSLRSEDTAVYYCARDAANMVRGIIIAYYFDYWGQGTLVTVSS VL: EIVMTQSPSSLSASVGDRVTITCRASQSISRYLNWYQLKPGKAPRLLIYGASSLQSGVPSRFSGSGSGAEFTLTISSLQPEDIATYYCQHTRAFGQGTKVEIKR = 8.05
